- Tested on: HS 578T breast
- measurement-notes: NCI-60 one-dose screen, 48 h (100 = growth as untreated, 0 = no growth, -100 = all killed)
- measurement-context: 10 µM unless noted
About 83,000 compounds went through this panel and 20% of them were active in at least one assay; those are over-represented in the sample as a whole. Calls of active or inactive are those of the source. How the source made its calls: active means growth percent below 10; inactive means the rest.
observed-property: growth

* COc1cc(/C=N\NC(=O)CN2CCN(c3cc4c(cc3F)c(=O)c(C(=O)N/N=C/c3ccc(O)c(OC)c3)cn4C3CC3)CC2)ccc1O | 63.5% (inactive)
* O=[N+]([O-])c1cccc(-c2nc3sccn3c2-c2ccnc(NCCCNS(=O)(=O)c3cccc(F)c3)n2)c1 | 31.2% (inactive)
* CCN(CC)CCCCNc1ccc(NCCCCN(CC)CC)c2c1C(=O)c1ccccc1C2=O | 101% (inactive)
* COc1ccc(C(=O)/C=C/c2c(Cl)c3c(c(OC)c2Cl)OCC(=O)N3)cc1 | 39.4% (inactive)
* O=C(Nc1nc(-c2ccccc2)cc(-c2ccc(Cl)cc2)n1)c1ccncc1 | 100% (inactive)
* C[C@@H]1CC[C@@H]2[C@@H]1[C@H](OC(=O)/C=C/c1ccccc1)[C@]1(C3CCCCC3)C[C@@H](OC(=O)CO)[C@@]2(C)O1 | -22.4% (active)
* COc1cccc(/C=C2/C(=O)N(Cc3ccco3)SC2=S)c1OC | 109% (inactive)
* COc1ccc2nc3cc(Cl)ccc3c(N3CCN(c4nccc(NCc5ccccc5)n4)CC3)c2c1 | 83.3% (inactive)

Attribution: PubChem BioAssay (NCI)
